- measured.on: Estrogen-related receptor gamma (Homo sapiens, UniProt P62508)
- Sequence (P62508 whole entry): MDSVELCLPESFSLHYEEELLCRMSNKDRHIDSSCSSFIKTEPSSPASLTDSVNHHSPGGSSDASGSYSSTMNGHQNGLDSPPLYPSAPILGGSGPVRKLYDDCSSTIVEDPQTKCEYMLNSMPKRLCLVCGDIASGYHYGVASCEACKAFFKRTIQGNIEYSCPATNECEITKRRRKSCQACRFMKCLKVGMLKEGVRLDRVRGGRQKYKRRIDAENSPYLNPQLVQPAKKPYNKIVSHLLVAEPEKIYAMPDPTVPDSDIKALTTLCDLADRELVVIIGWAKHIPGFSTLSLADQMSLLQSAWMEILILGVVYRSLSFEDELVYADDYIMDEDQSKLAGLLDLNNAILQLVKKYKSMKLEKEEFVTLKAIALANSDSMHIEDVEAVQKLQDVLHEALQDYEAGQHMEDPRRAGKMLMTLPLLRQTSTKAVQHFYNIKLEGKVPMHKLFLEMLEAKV
assay.endpoint: IC50

{"smiles.str": "CN(C)CCOc1ccc(/C(=C(/CCCO)c2cccnc2)c2ccc(Br)cc2)cc1", "recorded.result": "> 10 µM"}
{"smiles.str": "CN(C)CCOc1ccc(/C(=C(/CCCO)c2ccccc2)c2cccnc2)cc1", "recorded.result": "> 10 µM"}
{"smiles.str": "CN(C)CCOc1ccc(/C(=C(/CCCO)c2ccccc2)c2ccc(S(C)(=O)=O)cc2)cc1", "recorded.result": "> 10 µM"}

====

- measured.on: UniProt P62508
IC50 values for the compounds below.

{"smiles.str": "CN(C)CCOc1ccc(/C(=C(/CCCO)c2ccccc2)c2ccncc2)cc1", "IC50": "> 10 µM"}
{"smiles.str": "Cc1ccc(/C(=C(\\CCCO)c2cccnc2)c2ccc(OCCN(C)C)cc2)cc1", "IC50": "> 10 µM"}
{"smiles.str": "CN(C)CCOc1ccc(/C(=C(/CCCO)c2cccnc2)c2ccccc2)cc1", "IC50": "> 10 µM"}
{"smiles.str": "COc1ccc(/C(=C(\\CCCO)c2ccc3cnn(C)c3c2)c2ccc(OCCN(C)C)cc2)cc1", "IC50": "> 10 µM"}
{"smiles.str": "CN(C)CCOc1ccc(/C(=C(/CCCO)c2ccccc2)c2ccc(C#N)cc2)cc1", "IC50": "> 10 µM"}
